System: BDF1 mice, B16 melanoma ip, median survival T/C
Assay explanation: NCI In Vivo Anticancer Drug Screen. Data for tumor model B16 Melanoma (intraperitoneal) in B6D2F1 (BDF1) mice
Condition: endpoint: median survival time; dose: 100.0 mg/kg/injection; schedule: Q01DX009 (ip); vehicle: saline with Tween-80; higher = longer survival
Toxic doses and inconclusive results are not listed. Peptide text beside a SMILES is read from it. * marks the point of attachment. Cbz = O=C(OCc1ccccc1)*
Observation type: T/C

CCCCCCCC(N)=O: 100 % of control
CC1(C)CC1(Br)Br: 110 % of control
CN=S(=O)(OCCCCCOS(=O)(=NC)c1ccc(C)cc1)c1ccc(C)cc1 (stereo not drawn): 101 % of control
CCCCCc1ccc(C(=O)O)cc1: 111 % of control

Prompt: Field request: T/C | item: O=C(NC(Cc1ccccc1)C(=O)NC(CO)C(=O)O)OCc1ccccc1 (stereo not drawn) (Cbz-Phe-Ser-OH; configuration not given here)
Response: 90 % of control

Prompt: Field request: T/C | item: CCOC(=O)C(CC)(CCC(C)C)C(=O)OCC
Response: 97 % of control
